system: T1, MDA5-C (UniProt Q9BYX4 295-1025)
T1 sequence: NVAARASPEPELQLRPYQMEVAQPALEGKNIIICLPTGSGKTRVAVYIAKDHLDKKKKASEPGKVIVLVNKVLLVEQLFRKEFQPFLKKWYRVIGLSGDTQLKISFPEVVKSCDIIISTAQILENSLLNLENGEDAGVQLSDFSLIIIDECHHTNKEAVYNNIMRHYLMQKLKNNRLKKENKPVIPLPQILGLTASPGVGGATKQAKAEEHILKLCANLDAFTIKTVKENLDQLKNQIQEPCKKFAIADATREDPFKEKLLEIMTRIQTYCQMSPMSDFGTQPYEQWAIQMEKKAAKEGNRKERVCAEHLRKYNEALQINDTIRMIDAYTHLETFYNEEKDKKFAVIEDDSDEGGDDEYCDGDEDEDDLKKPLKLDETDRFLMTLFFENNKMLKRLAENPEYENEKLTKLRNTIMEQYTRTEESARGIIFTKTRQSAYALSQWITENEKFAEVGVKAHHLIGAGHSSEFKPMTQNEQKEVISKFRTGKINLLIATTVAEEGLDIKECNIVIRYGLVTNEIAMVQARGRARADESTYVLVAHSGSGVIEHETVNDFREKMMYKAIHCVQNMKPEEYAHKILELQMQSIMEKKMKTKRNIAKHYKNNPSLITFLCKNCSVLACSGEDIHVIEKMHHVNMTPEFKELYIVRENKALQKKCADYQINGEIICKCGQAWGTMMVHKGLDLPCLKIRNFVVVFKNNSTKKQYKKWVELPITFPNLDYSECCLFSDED
assay: single-molecule TIRF
readout-name: Kd (nM)
The answer is to be given in nM; state only the numeric part.

IN: Using the record for 44bp dsRNA (dsRNA, strand 2 5' amino modifier C6 (5AmMC6)) RNA 1: CGAGCAGACUGGCAAUCCGGAUCUCCCAGGCCCGGCUUUCAAGC RNA 2: GCUUGAAAGCCGGGCCUGGGAGAUCCGGAUUGCCAGUCUGCUCG , report its Kd.
OUT: 326
